tested.target: NR2F6 (Homo sapiens)
Construct: expressed in transfected cells; also transient transfection
procedure.text: NR2F6 agonist screening, Firefly signal cmpd/DMSO
Type: cell-based
experimental.setup: C11 analogs follow set (Tables 2-10), repeat 1
reported.endpoint: Firefly, cmpd/DMSO repeat 1

{"compound": "COc1cccc(S(=O)(=O)c2cc3cc(Cl)ccc3oc2=O)c1 [Compound C184]", "Firefly, cmpd/DMSO repeat 1": 1.1}

A: O=c1oc2ccc([N+](=O)[O-])cc2cc1S(=O)(=O)c1ccc(F)cc1 [Compound C137]
B: COc1ccc2oc(=O)c(S(=O)(=O)c3ccccc3F)cc2c1 [Compound C221]
C: Cc1ccc(CNC(=O)c2ccc3oc(=O)c(S(=O)(=O)c4ccc(Cl)cc4)cc3c2)cc1 [Compound C116]
Form: Sort by [Firefly, cmpd/DMSO repeat 1] Order [ ascending ] Would you mind listing the labels in the order requested? B, C, A
(B: 1.3, C: 8.6, A: 22.6)

====

tested.target: NR2F6 (Homo sapiens, UniProt P10588)
Construct: expressed in transfected cells; also transient transfection
Sequence (P10588 whole entry): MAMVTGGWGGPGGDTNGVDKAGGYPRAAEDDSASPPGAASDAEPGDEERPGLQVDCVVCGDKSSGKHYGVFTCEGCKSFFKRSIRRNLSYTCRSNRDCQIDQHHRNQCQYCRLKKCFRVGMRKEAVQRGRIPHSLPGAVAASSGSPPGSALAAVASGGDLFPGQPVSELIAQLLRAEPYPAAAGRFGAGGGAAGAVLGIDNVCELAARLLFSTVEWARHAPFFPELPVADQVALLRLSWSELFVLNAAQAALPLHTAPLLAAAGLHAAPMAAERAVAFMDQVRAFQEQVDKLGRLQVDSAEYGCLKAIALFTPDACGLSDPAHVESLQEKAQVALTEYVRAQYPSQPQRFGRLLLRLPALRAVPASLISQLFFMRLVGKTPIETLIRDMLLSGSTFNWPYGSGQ
procedure.text: NR2F6 agonist screening, Firefly signal cmpd/DMSO
Format: cell-based
experimental.setup: F4; 10% FBS; 0.5 uM
reported.endpoint: Firefly, F4, 10% FBS, cmpd/DMSO (mean)

Previously resolved entries follow.
{"compound": "Cc1cc(S(=O)(=O)[C@H]2CS(=O)(=O)C[C@@H]2NCC2CCCO2)ccc1F (stereo partly shown)", "reported.endpoint": "Firefly, F4, 10% FBS, cmpd/DMSO (mean)", "reported.measurement": 1.5}
{"compound": "O=S1(=O)C[C@H](NC2CCCCCC2)[C@@H](S(=O)(=O)c2ccc(Cl)cc2)C1", "reported.endpoint": "Firefly, F4, 10% FBS, cmpd/DMSO (mean)", "reported.measurement": 1.1}

P: CCC(C)N[C@H]1CS(=O)(=O)C[C@@H]1S(=O)(=O)c1ccc(Cl)cc1 (stereo partly shown)
Q: O=S1(=O)C[C@H](NCCc2cccs2)[C@@H](S(=O)(=O)c2ccc(Cl)cc2)C1
Decide: P or Q , by lowest recorded Firefly, F4, 10% FBS, cmpd/DMSO (mean). Answer by quoting the chosen item's label. Q
(Q: 0.8, P: 1.2)

====

System: HEK293 pGL4
procedure.text: Firefly_pGL signal, cmpd/DMSO (pGL4 control cells)
Format: cell-based
experimental.setup: Homo sapiens, HEK293, 40 uM; read-out: Firefly pGL4, cmpd/DMSO (mean)
reported.endpoint: fold induction at 40 µM
Write the number on its own, no unit after it.

{"molecule": "O=S1(=O)C[C@H](NCC2CCCO2)[C@@H](S(=O)(=O)c2cccs2)C1 (stereo partly shown) [Compound D134]", "fold induction at 40 µM": 1.7}
{"molecule": "CC(C)CCN[C@H]1CS(=O)(=O)C[C@@H]1S(=O)(=O)c1ccc(Cl)cc1 [Compound D131]", "fold induction at 40 µM": 1}
{"molecule": "O=S1(=O)C[C@H](NCCCc2ccccc2)[C@@H](S(=O)(=O)c2ccc(Cl)cc2)C1 [Compound D137]", "fold induction at 40 µM": 1.5}

Reported fold induction at 40 µM, molecule CC(C)OCCCN[C@H]1CS(=O)(=O)C[C@@H]1S(=O)(=O)c1ccc(Cl)cc1 [Compound D138] : ____ 1.5

Query (molecule): COCCN[C@H]1CS(=O)(=O)C[C@@H]1S(=O)(=O)c1ccc(Cl)cc1 [Compound D136] ; field requested: fold induction at 40 µM 2.6

Entry O=S1(=O)C[C@H](NCc2ccco2)[C@@H](S(=O)(=O)c2cccs2)C1 [Compound D135] has what fold induction at 40 µM? 1.3

Suppose we examine the molecule O=S1(=O)C[C@H](N2CCCC2)[C@@H](S(=O)(=O)c2cccs2)C1 [Compound D104] ; what fold induction at 40 µM value has been reported? 0.7
